Entry source: ChEMBL document CHEMBL1201862

test system: SF-539; experiment: NCI tumour cell line growth inhibition, 48 h
Active and inactive are the calls of the source. Cut-off read from the data, not from the text of the source: active = GI50 up to about 1.1 µM and inactive = higher.
Below, each entry is listed with its recorded GI50.

// below: answered compounds
C=CCSS/C=C/C[S+]([O-])CC=C (stereo not given) : 25 µM (inactive)
CCC1C(=O)C(O)[C@H]2[C@@H]3C(O)CC4=CC(=O)CC[C@]4(C)[C@H]3CC[C@]12C (stereo not given in full) : > 50 µM (inactive)
O=c1[nH]ncc2[nH]c3c(c12)CCc1ccccc1-3 : 18.5 µM (inactive)

GI50 for Brc1ccccc1/C=C\C1(c2ccccc2)OCCO1 ? 10.4 µM (inactive)

If you can, please state the reported GI50 value of CC(=O)Oc1ccc2c(c1)[nH]c1c3ccc(OC(C)=O)cc3oc(=O)c21 . 29.9 µM (inactive)

Report GI50 for CCCNCCCC(NC(C)=O)C(=O)NCc1ccccc1 (stereo not given) please. > 100 µM (inactive)

Look at this compound and give its reported GI50. CC(=O)Nc1ccc(-c2nc3ccccc3s2)cc1C 50.8 µM (inactive)

GI50 lookup needed for CCOC(=O)C(C)c1nc2cc(F)c(N3CCOCC3)cc2[nH]c1=O (stereo not given) , thanks. > 100 µM (inactive)

Would you kindly share the measured GI50 for CN(C)c1ccc2c(SCC(=O)OCC(=O)[C@@]3(O)CC[C@H]4[C@@H]5CCC6=CC(=O)C=C[C@]6(C)[C@H]5C(=O)C[C@@]43C)c3ccc(N(C)C)cc3nc2c1 ? 6.19 µM (inactive)
